# System: HepG2
# MEASUREMENT_DESCRIPTION: cytotoxicity call (relative viability < 0.9)
# SETTINGS: 10 µM
In all, about 39,000 compounds went through this assay and about 3,300 (8.5%) were called active. The full list was thinned out, with actives kept by preference.
Outcomes: class 1 = active, class 0 = inactive

compound_structure_string=C[C@H](CO)N1C[C@H](C)[C@@H](CN(C)Cc2ccc(Cl)c(Cl)c2)Oc2ccc(NS(=O)(=O)c3ccccc3)cc2CC1=O group="class 0"
compound_structure_string=O=C(Cc1ccc2c(c1)OCO2)N[C@@H]1CCNC[C@H]1O group="class 0"
compound_structure_string=C[C@H]1CCCCO[C@@H](CN(C)C(=O)NC2CCCCC2)[C@@H](C)CN([C@@H](C)CO)C(=O)c2cc(NC(=O)NC3CCCCC3)ccc2O1 group="class 0"
compound_structure_string=C[C@@H]1CN([C@@H](C)CO)C(=O)Cc2cc(NS(=O)(=O)c3ccccc3)ccc2O[C@@H]1CN(C)Cc1ccc(Cl)c(Cl)c1 group="class 1"
compound_structure_string=C[C@@H]1CN([C@H](C)CO)C(=O)Cc2cc(NS(=O)(=O)c3ccccc3)ccc2O[C@H]1CN(C)Cc1ccc(Cl)c(Cl)c1 group="class 1"
compound_structure_string=C[C@H]1CN([C@@H](C)CO)C(=O)CCCn2nncc2CO[C@H]1CN(C)S(=O)(=O)c1ccc(C#N)cc1 group="class 0"
compound_structure_string=C[C@H]1CN([C@@H](C)CO)C(=O)Cc2cc(NS(=O)(=O)c3ccccc3)ccc2O[C@@H]1CN(C)Cc1ccc(Cl)c(Cl)c1 group="class 1"
